- study.system: 5-HT1A receptor (Homo sapiens)
- Construct: expressed in transfected cells; host or cells: CHO cells, stably transfected
- Sequence (P08908 1-422): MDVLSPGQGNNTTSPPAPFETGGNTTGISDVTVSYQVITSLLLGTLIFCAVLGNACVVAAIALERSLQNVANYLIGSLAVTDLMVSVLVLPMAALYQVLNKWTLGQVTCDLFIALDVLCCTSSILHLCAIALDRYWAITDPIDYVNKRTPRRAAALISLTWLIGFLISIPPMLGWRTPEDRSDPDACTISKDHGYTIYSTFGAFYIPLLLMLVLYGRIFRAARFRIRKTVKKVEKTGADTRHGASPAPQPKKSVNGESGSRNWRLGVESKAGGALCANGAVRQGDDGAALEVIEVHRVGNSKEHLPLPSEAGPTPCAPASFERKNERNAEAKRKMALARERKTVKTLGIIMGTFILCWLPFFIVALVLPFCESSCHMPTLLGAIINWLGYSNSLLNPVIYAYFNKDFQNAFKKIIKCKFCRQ
- protocol.text: cell-based
- condition.context: CHO, agonist, Ca2+ flux, CHO cells with Gα15, max dose; read-out: 5-HT1A % Act @ Max Dose
Quick reference for Emax among some compounds
Report as a plain number; the unit % is understood.

> print(dat)
                           structure.string  result.unit  endpoint.value
1  CCCN(CC)C(=O)[C@@H]1C=C2c3cccc4[nH]cc(c34)C[C@H]2N(Cc2ccccc2)C1            %            49.1

Task: GET /values?readout=Emax&item= CCN(CC)C(=O)[C@@H]1C=C2c3cccc4[nH]cc(c34)C[C@H]2N(Cc2ccccc2C)C1
Output: 69.9

Task: GET /values?readout=Emax&item= CCN(CC)C(=O)[C@@H]1C=C2c3cccc4[nH]cc(c34)C[C@H]2N(CCc2ccccn2)C1
Output: 46.2

* * *

- study.system: 5-HT2B receptor (Homo sapiens, UniProt P41595)
- Sequence (P41595 whole entry): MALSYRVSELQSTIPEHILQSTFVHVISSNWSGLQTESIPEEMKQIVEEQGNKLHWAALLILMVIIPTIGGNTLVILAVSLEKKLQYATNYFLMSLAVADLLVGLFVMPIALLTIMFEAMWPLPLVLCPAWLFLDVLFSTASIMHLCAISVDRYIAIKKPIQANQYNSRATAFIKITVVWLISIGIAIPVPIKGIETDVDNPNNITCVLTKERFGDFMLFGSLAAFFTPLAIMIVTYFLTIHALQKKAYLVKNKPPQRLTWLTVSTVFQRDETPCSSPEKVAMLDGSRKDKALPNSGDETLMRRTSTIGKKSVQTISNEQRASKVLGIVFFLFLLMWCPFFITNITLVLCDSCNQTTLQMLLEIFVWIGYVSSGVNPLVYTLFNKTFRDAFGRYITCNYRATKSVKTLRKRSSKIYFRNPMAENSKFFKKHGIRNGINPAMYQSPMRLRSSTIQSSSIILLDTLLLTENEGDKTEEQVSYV
- protocol.text: cell-based
- condition.context: agonist, Ca2+ flux, HEK293
pEC50: −log10 of the molar value.
parameter.measured: pEC50

> print(dat)
                                   compound  endpoint.value
1  CCN(C)C(=O)[C@@H]1C=C2c3cccc4[nH]cc(c34)C[C@H]2N(Cc2ccccc2)C1 [Compound 85]          < 5.00
2  CCN(CC)C(=O)[C@@H]1C=C2c3cccc4[nH]cc(c34)C[C@H]2N(CC2CCCC2)C1 [Compound 90]          < 5.00

Task: GET /values?readout=pEC50&item= C[C@H]1C[C@H](C)N1C(=O)[C@@H]1C=C2c3cccc4[nH]cc(c34)C[C@H]2N(Cc2ccccc2)C1 [Compound 87]
Output: < 5.52

Task: GET /values?readout=pEC50&item= CN(C)C(=O)[C@@H]1C=C2c3cccc4[nH]cc(c34)C[C@H]2N(Cc2ccccc2)C1 [Compound 102]
Output: < 5.00

Task: GET /values?readout=pEC50&item= CCNC(=O)[C@@H]1C=C2c3cccc4[nH]cc(c34)C[C@H]2N(Cc2cccc(OC)c2)C1 [Compound 63]
Output: < 5.00

* * *

- study.system: 5-HT2B receptor (Homo sapiens)
- Construct: expressed in transfected cells; host or cells: HEK293, stably transfected
- protocol.text: cell-based
- Assay type: cell-based
- condition.context: HEK293, agonist, Ca2+ flux, HEK293, max dose; read-out: 5-HT2B % Act @ Max Dose
Quick reference for Emax among some compounds
Report as a plain number; the unit % is understood.

Examples with answers:
> print(dat)
                                   compound  parameter.measured  endpoint.value
1  CCC(CC)NC(=O)[C@@H]1C=C2c3cccc4[nH]c(Br)c(c34)C[C@H]2N(C)C1 [Compound 44]                Emax            15.7
2  C[C@H]1C[C@H](C)N1C(=O)[C@@H]1C=C2c3cccc4[nH]cc(c34)C[C@H]2N(CCCF)C1 [Compound 26]                Emax             101
3  CCC(CC)NC(=O)[C@@H]1C=C2c3cccc4[nH]cc(c34)C[C@H]2N(C)C1 [Int14]                Emax            9.84

Task: GET /values?readout=Emax&item= CCN(CC)C(=O)[C@@H]1C=C2c3cccc4[nH]cc(c34)C[C@H]2N(Cc2ccon2)C1 [Compound 70]
Output: 34.4

Task: GET /values?readout=Emax&item= CCN(CC)C(=O)[C@@H]1C=C2c3cccc4[nH]cc(c34)C[C@H]2N(CCC(F)(F)F)C1 [Compound 12]
Output: 29.6

Task: GET /values?readout=Emax&item= CCN(CC)C(=O)[C@@H]1C=C2c3cccc4[nH]cc(c34)C[C@H]2N(Cc2ccccn2)C1 [Compound 22]
Output: 7.74

Task: GET /values?readout=Emax&item= CC[C@@H](C)NC(=O)[C@@H]1C=C2c3cccc4[nH]cc(c34)C[C@H]2N(Cc2cccc(OC)c2)C1 [Compound 95]
Output: 0.13

Task: GET /values?readout=Emax&item= CCCN1C[C@H](C(=O)N(CC)CC)C=C2c3cccc4[nH]cc(c34)C[C@H]21 [Compound 1]
Output: 104

* * *

- study.system: 5-HT2B receptor (Homo sapiens, UniProt P41595)
- Construct: expressed in transfected cells; host or cells: HEK293, stably transfected
- protocol.text: cell-based
- Assay type: cell-based
- condition.context: HEK293, agonist, Ca2+ flux, HEK293, max dose; read-out: 5-HT2B % Act @ Max Dose
Quick reference for Emax among some molecules
Write the numeric value and follow it with the unit.

> print(dat)
                           structure.string  endpoint.value
1  COc1cccc(CN2C[C@H](C(=O)N3[C@@H](C)C[C@@H]3C)C=C3c4cccc5[nH]cc(c45)C[C@H]32)c1          -1.21%

Task: GET /values?readout=Emax&item= CCN(CC)C(=O)[C@H]1C=C2c3cccc4[nH]cc(c34)C[C@H]2N(CCCF)C1
Output: 40.1%

Task: GET /values?readout=Emax&item= CCN(CC)C(=O)[C@@H]1C=C2c3cccc4[nH]cc(c34)C[C@H]2N(CC2CCCCC2)C1
Output: 11.5%

Task: GET /values?readout=Emax&item= C=CCN1C[C@@H](C(=O)N[C@H](C)CC)C=C2c3cccc4[nH]cc(c34)C[C@H]21
Output: 35.7%

Task: GET /values?readout=Emax&item= CCN(C)C(=O)[C@@H]1C=C2c3cccc4[nH]cc(c34)C[C@H]2N(CC2CCCC2)C1
Output: 5.54%

* * *

- study.system: 5-HT1A receptor (Homo sapiens, UniProt P08908)
- Construct: expressed in transfected cells; host or cells: CHO cells, stably transfected
- protocol.text: cell-based
- condition.context: CHO, agonist, Ca2+ flux, CHO cells with Gα15, max dose; read-out: 5-HT1A % Act @ Max Dose
parameter.measured: Emax (%)
Report as a plain number; the unit % is understood.

Examples with answers:
> print(dat)
                           structure.string  parameter.measured  endpoint.value
1  CCN(CC)C(=O)[C@@H]1C=C2c3cccc4[nH]cc(c34)C[C@H]2N(CC2CCCC2)C1                Emax            76.8
2  O=C([C@@H]1C=C2c3cccc4[nH]cc(c34)C[C@H]2N(Cc2ccccc2)C1)N1CCCC1                Emax            40.3
3  CCC(CC)NC(=O)[C@@H]1C=C2c3cccc4[nH]cc(c34)C[C@H]2N(C)C1                Emax             102
4  CCN(CC)C(=O)[C@@H]1C=C2c3cccc4[nH]cc(c34)C[C@H]2N(Cc2cccc(C)c2)C1                Emax            31.2
5  CC[C@@H](C)NC(=O)[C@@H]1C=C2c3cccc4[nH]cc(c34)C[C@H]2N(CC)C1                Emax             108

Task: GET /values?readout=Emax&item= CCN(CC)C(=O)[C@@H]1C=C2c3cccc4[nH]cc(c34)C[C@H]2N(Cc2ccc(OC)cc2)C1
Output: -0.65

* * *

- study.system: 5-HT2B receptor (Homo sapiens)
- Construct: expressed in transfected cells; host or cells: HEK293, stably transfected
- protocol.text: cell-based
- Assay type: cell-based
- condition.context: HEK293, agonist, Ca2+ flux, HEK293, max dose; read-out: 5-HT2B % Act @ Max Dose
parameter.measured: Emax (%)
Report as a plain number; the unit % is understood.

Examples with answers:
> print(dat)
                                   molecule  endpoint.value
1  CCCN1C[C@H](C(=O)N2[C@@H](C)C[C@@H]2C)C=C2c3cccc4[nH]c(Br)c(c34)C[C@H]21 [Compound 47]              87
2  CCN(CC)C(=O)[C@H]1C=C2c3cccc4[nH]cc(c34)C[C@H]2N(CC2CCCC2)C1 [Compound 90a]            21.9
3  CCN(CC)C(=O)[C@@H]1C=C2c3cccc4[nH]cc(c34)C[C@H]2N(Cc2cccc(OC)c2)C1 [Compound 18]            4.69

Task: GET /values?readout=Emax&item= CCN(CC)C(=O)[C@@H]1C=C2c3cccc4[nH]c(Br)c(c34)C[C@H]2N(CCC(F)(F)F)C1 [Compound 42]
Output: 2.58
